- assayExplanation: In vivo pharmacokinetics after oral and IV administration
- Set-up: species or system Balb/C mice
- statedConditions: male, Balb/C, mouse, plasma, iv, 1 mg/kg
experimentalReadout: AUC(0-inf) (µg·h/mL)
Answer with a number only, understood to be in µg·h/mL.

Query: Fill blank: measured AUC(0-inf) of the molecule CC(=O)c1c(O)c(C)c(O)c(Cc2c(O)c3c(c(C(=O)/C=C/c4ccccc4)c2O)OC(C)(C)C=C3)c1O is ____.
Reply: 2.92

###

- assayExplanation: In vivo pharmacokinetics after oral and IV administration
- Design: species or system Balb/C mice
- statedConditions: male, Balb/C, mouse, plasma, po, 4 mg/kg
experimentalReadout: AUC(0-t) (ng·h/mL)
Report only the number, with the unit ng·h/mL understood.

Query: GET /values?readout=AUC(0-t)&item= CC(=O)c1c(O)c(C)c(O)c(Cc2c(O)c3c(c(C(=O)/C=C/c4ccccc4)c2O)OC(C)(C)C=C3)c1O [Rottlerin]
Reply: 4050

###

- assayExplanation: In vivo pharmacokinetics after oral and IV administration
- Set-up: species or system Balb/C mice
- statedConditions: male, Balb/C, mouse, plasma, iv, 1 mg/kg, T1/2, intravenous, Balb/C mice
experimentalReadout: half-life

Query: Which half-life value belongs to CC(=O)c1c(O)c(C)c(O)c(Cc2c(O)c3c(c(C(=O)/C=C/c4ccccc4)c2O)OC(C)(C)C=C3)c1O ?
Reply: > 2 h

###

- assayExplanation: In vivo pharmacokinetics after oral and IV administration
- Parameters: species or system Balb/C mice
- statedConditions: male, Balb/C, mouse, plasma, po, 4 mg/kg
experimentalReadout: Cmax (ng/mL)
Your answer should be a plain number; it is taken to be in ng/mL.

Query: Data request, read-out Cmax, for CC(=O)c1c(O)c(C)c(O)c(Cc2c(O)c3c(c(C(=O)/C=C/c4ccccc4)c2O)OC(C)(C)C=C3)c1O
Reply: 660

###

- assayExplanation: In vivo pharmacokinetics after oral and IV administration
- Set-up: species or system Balb/C mice
- statedConditions: male, Balb/C, mouse, plasma, iv, 1 mg/kg
experimentalReadout: AUC(0-t)
I'd appreciate it if you wrote the number followed by its unit.

Query: Please report the recorded AUC(0-t) for CC(=O)c1c(O)c(C)c(O)c(Cc2c(O)c3c(c(C(=O)/C=C/c4ccccc4)c2O)OC(C)(C)C=C3)c1O [Rottlerin] .
Reply: 2850 ng·h/mL

###

- assayExplanation: In vivo pharmacokinetics after oral and IV administration
- Set-up: species or system Balb/C mice
- statedConditions: male, Balb/C, mouse, plasma, po, 4 mg/kg, T1/2, oral, Balb/C mice
experimentalReadout: half-life

Query: I have this compound here, CC(=O)c1c(O)c(C)c(O)c(Cc2c(O)c3c(c(C(=O)/C=C/c4ccccc4)c2O)OC(C)(C)C=C3)c1O , and I need its recorded half-life.
Reply: > 2 h

###

- assayExplanation: Plasma protein binding by rapid equilibrium dialysis
- statedConditions: mouse
Where a name gives a salt, the structure may show the parent alone.
experimentalReadout: fraction unbound at 4 h, 5 µM
Respond numerically, and do not add a unit to the figure.

Query: Any idea what fraction unbound at 4 h, 5 µM was measured for CNC(=C[N+](=O)[O-])NCCSCc1ccc(CN(C)C)o1 [ranitidine, ranitidine hydrochloride] ?
Reply: 0.793

###

- assayExplanation: In vivo pharmacokinetics after oral and IV administration
- Set-up: species or system Balb/C mice
- statedConditions: male, Balb/C, mouse, plasma, po, 4 mg/kg, Tmax, Balb/C mice
experimentalReadout: Tmax

Query: Can you share its Tmax? I mean this compound: CC(=O)c1c(O)c(C)c(O)c(Cc2c(O)c3c(c(C(=O)/C=C/c4ccccc4)c2O)OC(C)(C)C=C3)c1O
Reply: ~2.4 h
